Quick reference for pIC50 among some compounds
Target: NRAS Q61K (Homo sapiens (Human), UniProt P01111+P62937, Q61K)
Sequence (P01111 whole entry Q61K): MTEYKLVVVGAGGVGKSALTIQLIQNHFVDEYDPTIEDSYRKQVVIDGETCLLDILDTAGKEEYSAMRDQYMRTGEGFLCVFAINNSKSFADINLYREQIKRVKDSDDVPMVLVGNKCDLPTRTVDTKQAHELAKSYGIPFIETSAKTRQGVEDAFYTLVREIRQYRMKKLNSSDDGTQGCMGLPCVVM
Sequence (P62937 whole entry): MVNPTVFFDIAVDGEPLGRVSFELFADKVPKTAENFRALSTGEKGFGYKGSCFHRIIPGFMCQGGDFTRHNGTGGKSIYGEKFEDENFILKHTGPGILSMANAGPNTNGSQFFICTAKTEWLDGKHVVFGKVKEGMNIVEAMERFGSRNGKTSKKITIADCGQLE
Assay: Ras-Raf disruption/FRET/MOA assay, NRAS Q61K
Type: biochemical
pIC50: −log10 of the molar value.
Experimental Readout: pIC50

Compound	Experimental Readout	Reported Result
CCn1c(-c2cccnc2[C@H](C)OC)c2c3cc(ccc31)-c1cc(O)cc(c1)C[C@H](NC(=O)[C@H](C(C)C)N(C)C(=O)[C@@H]1CO[C@H](C)CN1C(=O)[C@H]1CN1)C(=O)N1CCC[C@H](N1)C(=O)OCC(C)(C)C2 [Example 248]	pIC50	6.00 to 7.00
CCn1c(-c2cccnc2[C@H](C)OC)c2c3cc(ccc31)-c1cc(O)cc(c1)C[C@H](NC(=O)[C@H](C(C)C)N(C)C(=O)[C@@H]1CO[C@H](C)CN1C(=O)[C@@H]1CN1)C(=O)N1CCC[C@H](N1)C(=O)OCC(C)(C)C2 [Example 249]	pIC50	7.00 to 8.00
CCn1c(-c2cccnc2[C@H](C)OC)c2c3cc(ccc31)-c1cc(O)cc(c1)C[C@H](NC(=O)[C@H](C(C)C)N(C)C(=O)[C@@]1(C)CCCN1C(=O)[C@H]1CN1)C(=O)N1CCC[C@H](N1)C(=O)OCC(C)(C)C2 [Example 239]	pIC50	6.00 to 7.00
CCn1c(-c2cccnc2[C@H](C)OC)c2c3cc(ccc31)-c1cc(O)cc(c1)C[C@H](NC(=O)[C@@H](C(C)C)N(C)C(=O)[C@@]1(C)CCCN1C(=O)[C@@H]1CN1)C(=O)N1CCC[C@H](N1)C(=O)OCC(C)(C)C2 [Example 242]	pIC50	5.00 to 6.00
CCn1c(-c2cccnc2[C@H](C)OC)c2c3cc(ccc31)-c1cc(O)cc(c1)C[C@H](NC(=O)[C@H](C(C)C)N(C)C(=O)[C@]13C[C@H]1CCN3C(=O)[C@H]1CN1)C(=O)N1CCC[C@H](N1)C(=O)OCC(C)(C)C2 [Example 244]	pIC50	5.00 to 6.00
CCn1c(-c2cccnc2[C@H](C)OC)c2c3cc(ccc31)-c1cc(O)cc(c1)C[C@H](NC(=O)[C@H](C(C)C)N(C)C(=O)[C@@]1(C)CCCN1C(=O)[C@@H]1CN1)C(=O)N1CCC[C@H](N1)C(=O)OCC(C)(C)C2 [Example 241]	pIC50	6.00 to 7.00
CCn1c(-c2cccnc2[C@H](C)OC)c2c3cc(ccc31)-c1cc(O)cc(c1)C[C@H](NC(=O)[C@@H](C(C)C)N(C)C(=O)[C@@]1(C)CCCN1C(=O)[C@H]1CN1)C(=O)N1CCC[C@H](N1)C(=O)OCC(C)(C)C2 [Example 240]	pIC50	< 5.00
